- Tested on: NCI-H1975 cells (T790M and L858R EGFR mutations)
- assay_overview: Cell growth inhibition (Cell Titer-Glo), NCI-H1975
- Format: cell-based
- protocol_conditions: Homo sapiens, 72 hours drug treatment, 0.03 nM to 100 nM
Where a name gives a salt, the structure may show the parent alone.
metric: log10(IC50) (log10 of the value in nM)
Plainly stated, the numbers are log10 of IC50 given in nM.

Worked set:
Problem: Could you share which log10(IC50) value was measured for C=CC(=O)Nc1cc(Nc2nccc(-n3c(=O)n(CC)c4ccccc43)n2)c(OC)cc1N(C)CCN(C)C [66. (MsOH)3] ?
Solution: 0.56

Problem: Fill blank: measured log10(IC50) of the compound C=CC(=O)Nc1cc(Nc2nccc(-c3cn(S(C)(=O)=O)c4ccccc34)n2)c(OC)cc1N(C)CCN(C)C [49. (HCl)n] is ____.
Solution: -0.15

Each compound below has a recorded value; state its log10(IC50).
1. C=CC(=O)Nc1cc(Nc2nccc(-c3cn(CC)c4ccccc34)n2)c(OC)cc1N(C)CCN(C)C [48. (HCl)n]
2. C=CC(=O)Nc1cc(Nc2nccc(-c3cccc4c3ccn4C)n2)c(OC)cc1N(C)CCN(C)C [41. (HCl)n]
3. C=CC(=O)Nc1cc(Nc2nccc(-c3cn(C)c4ccccc34)n2)c(OC)cc1N(C)CCN1CCC(O)C1 (stereo not shown) [53. (HCl)n]
4. [2H]C([2H])([2H])Oc1cc(N(C)CCN(C)C)c(NC(=O)C=C)cc1Nc1nccc(-n2c(=O)n(C)c3ccccc32)n1 [60. (HCl)n]
5. C=CC(=O)Nc1cc(Nc2nccc(-c3cn(C)c4ccccc34)n2)c(OC)cc1OCCN(C)C [29. (MsOH)2]

Solution:
[0.74, 0.87, 1.15, 0.15, 1.11]

For every item below, please supply its log10(IC50).
1. [2H]C([2H])([2H])N(CCN(C)c1cc(OC)c(Nc2nccc(N3CC(C)(C)c4ccccc43)n2)cc1NC(=O)C=C)C([2H])([2H])[2H] [57. (HCl)n]
2. C=CC(=O)Nc1cc(Nc2nccc(-c3cn(C)c4ccccc34)n2)c(OC)cc1N1CCCC(N(C)C)C1 (stereo not shown) [34. (MsOH)3]

Solution:
[0.91, 1.60]

Batch: log10(IC50) for all items listed.
1. C=CC(=O)Nc1cc(Nc2nccc(-c3cncc4ccccc34)n2)c(OC)cc1N(C)CCN(C)C [Example 67]
2. C=CC(=O)Nc1cc(Nc2nccc(-n3[nH]c(=O)c4ccccc43)n2)c(OC)cc1N(C)CCN(C)C [50. (HCl)n]

Solution:
[1.91, 0.96]
